Tested on: A549 cells
Measurement Description: (Photo)cytotoxicity, MTT assay, A549
Assay type: cell-based, human
Measurement Setup: Homo sapiens; A549; dark, incubated 48 h; read-out: IC50 Dark
Parameter: IC50

Below are some molecules; for each one, tell me its IC50.
1. c1ccc2c(c1)[nH]c1c(-c3ncc[nH]3)nccc12 [Complex L1, 1-(2-imidazolyl)-β-carboline, reference compound]
2. c1ccc2[nH]c(-c3nccc4c3[nH]c3ccccc34)nc2c1

1: > 100 µM; 2: > 100 µM
